Assay: cells
Assay type: functional
Activity calls are given as the source filed them. The rule behind the calls is not given here.
PROPERTY LABEL: IC50

Field: example entries. Status: answers known.
{"columns": ["COMPOUND", "IC50"],
 "data": [
  ["O=C(CCN1C(=O)S/C(=C\\c2ccc(F)cc2)C1=O)Nc1ccc(C(=O)O)c(O)c1", "7.61 µM (active)"],
  ["CSCCC(=O)N1CCCC(CNC(=O)c2ccc(-c3ccccc3)cc2)C1 (stereo not drawn)", "11.6 µM (active)"],
  ["N#C/C(=C(\\O)Nc1ccccc1)c1nc2ccccc2[nH]1", "2.43 µM (active)"],
  ["NC(=O)c1ccc(/N=C/c2ccc([N+](=O)[O-])s2)cc1", "13.4 µM (active)"]
]}

Task item: Requested read-out: IC50. Entry: `Cc1ccc(S(=O)(=O)N2CCC(C(=O)OCc3ccccc3)CC2)cc1C`
Reply: 18.6 µM (active)

Task item: What about `COC(=O)C1=C(C)N(Cc2ccccc2)C(NCc2ccccc2)=N[C@H]1c1cccc(F)c1` ?
Reply: 19.8 µM (active)

Task item: What about CC(C)OC(=O)C(C)Oc1ccc(C(=O)NCCc2ccccc2)cc1 (stereo not drawn) ?
Reply: 10.3 µM (active)

Task item: What about `Cc1cccc(OC(=O)c2sc3ncn(C)c(=O)c3c2C)c1` ?
Reply: 2.87 µM (active)

Data provenance is ChEMBL document CHEMBL1201862.
